Target: Metabotropic glutamate receptor 8 (Rattus norvegicus)
Assay: mGluR8 Gi/Go-coupled signaling modulation – cell-based, rat, thallium flux, HTS, primary screen (AID 488969)
Conditions: HEK293 rat mGluR8, GIRK (G protein-gated inwardly rectifying potassium channel) thallium flux, FluoZin2; at 10 µM; stronger effect = higher value; submaximal glutamate (EC20) added with thallium
Over roughly 110,000 compounds, “z-score” has its median near -0.1; the highest 2% begin near 2. Only a selection was taken, and the highest values are over-represented in it overall.
Measured z-score accompanies every entry in the list below.
Keep it simple and answer with nothing but the number.

> print(dat)
                                   compound  quantitative.result
1  COc1ccc(NC(=O)C2CCN(C(=O)c3ccccc3)CC2)c(OC)c1                -1.36
2  COc1ccc(C(=O)NN=C(Cc2ccccc2)Cc2ccccc2)cc1OC               -0.165
3     O=S(=O)(Nc1ccccc1N1CCCCC1)c1ccc(Cl)s1                 3.45
4         CCOC(=O)c1ccccc1NC(=O)Cc1ccccc1OC               -0.663
5  CCOC(=O)C1=C(CC)Nc2ccccc2N=C1NC(=O)Nc1ccc(Cl)c(Cl)c1                  5.4
6       O=S(=O)(Nc1ccc(N2CCCCC2)cc1)c1cccs1               -0.488
7  O=C(Nc1cc(C(=O)N2CCCC2)ccc1N1CCCC1)c1ccccc1                 -1.7
8     O=S(=O)(Nc1cc(Cl)ccc1N1CCCCC1)c1cccs1                 7.03

Please give the measured z-score for this compound: "CC(=O)NNc1nc(-c2ccc(NC(C)=O)cc2)cs1" -0.0151

Please give the measured z-score for this compound: "O=C(Nc1ccccc1)c1ccccc1NS(=O)(=O)c1ccc(Cl)s1" -3.39

Please give the measured z-score for this compound: "O=C(N/N=C/c1c[nH]c2ccccc12)c1cc(-c2cccc3ccccc23)n[nH]1" -0.463
